Origin of the recorded values: patent US20050043315A1

measurement.label: melting point (°C)

[P] COc1ccc(-c2nc(N)ncc2-c2ccc(=O)n(C(C)C)n2)cc1
[Q] CC(C)COc1cccc(-c2nc(N)ncc2-c2ccc(=O)n(C(C)C)n2)c1
QUERY: Lower value of melting point belongs to which: P or Q ? I would appreciate it if you answered with the label of your choice.
RESULT: Q
(Q: 137 °C, P: 216.5 °C)

----------
measurement.label: melting point (°C)

Cn1nc(-c2cnc(N)nc2-c2ccc(Cl)c(Cl)c2)ccc1=O :: 238
CN(C)c1ncc(-c2ccc(=O)n(C)n2)c(-c2cccc(F)c2)n1 :: 184
CC(C)n1nc(-c2cnc(N)nc2-c2ccoc2)ccc1=O :: 216
Cn1nc(-c2cnc(N)nc2-c2ccc(Cl)cc2)ccc1=O :: 264
Cn1nc(-c2cnc(N)nc2-c2ccsc2)ccc1=O :: 252
